- tested-target: T1, Orencia
- T1 sequence (chain, INN chains, looked up, looked up): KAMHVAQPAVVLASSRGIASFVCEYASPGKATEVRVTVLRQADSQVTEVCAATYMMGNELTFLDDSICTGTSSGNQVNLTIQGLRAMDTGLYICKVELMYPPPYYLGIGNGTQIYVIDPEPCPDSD
- protocol-description: ELISA, signal on Orencia over SA
- Experimental: 10 μL of E. coli cultured medium was added with 90 μL of PBS and 40 μL of lysis reagent (20 μL BugBuster Protein Extraction Reagent (Novagen), 20 μL Lysozyme solution 2.5 mg/mL) to lyse E. coli cells for 1 hour at room temperature. […] The plates were washed 5 times with 100 μL/well of TBST, and binding of cyclic peptides to the antigen was detected by 20 μL/well of chromogenic substrate (0.4 mg/mL 3,3′,5,5′-Tetramethyl-benzidine, 0.01% hydrogen peroxide). […]
measurement-kind: S/N(SA)
Answer field: number only, no words.

Use these answered entries as a reference point.
query: Entry under review: GSCMHPFLPVASRHFCGR (peptide, not shown: large carriers; small tags and cut ends, MBP fusion; also called #23) [C4-302mat-3-1-31] . Reported S/N(SA)?
result: 13.2

query: Entry under review: GGCRHPFLPIVSRHFCRG (peptide, not shown: large carriers; small tags and cut ends, MBP fusion; also called #11) [C4-302mat-3-1-45] . Reported S/N(SA)?
result: 11.2

query: Entry under review: GGCMHPFLPVVSRHFCGR (peptide, not shown: large carriers; small tags and cut ends, MBP fusion; also called #25) [C4-302mat-3-1-12] . Reported S/N(SA)?
result: 17.9

Continuing:
query: Entry under review: GGCMHPYLPVISHHFCGR (peptide, not shown: large carriers; small tags and cut ends, MBP fusion; also called #16) [C4-302mat-3-100-12] . Reported S/N(SA)?
result: 19.4

query: Entry under review: GGCMHPFLPVASHHFCAG (peptide, not shown: large carriers; small tags and cut ends, MBP fusion) [C4-302mat-3-100-27] . Reported S/N(SA)?
result: 16.6

query: Entry under review: GGCMHPYLLVASHHFCER (peptide, not shown: large carriers; small tags and cut ends, MBP fusion; also called #39) [C4-302mat-3-1-9] . Reported S/N(SA)?
result: 8.8

query: Entry under review: GGCMHPFLPVASHHFCGR (peptide, not shown: large carriers; small tags and cut ends, MBP fusion; also called #6) [C4-302mat-3-1-22] . Reported S/N(SA)?
result: 18.9
